Reported values of pIC50 for individual entries
- System: rat hepatocytes
- method.summary: Sterol biosynthesis in rat hepatocytes (14C acetic acid labeling)
- Assay type: cell-based
- assay.context: Hepatocyte, 14C cholesterol from 14C acetic acid, 4 hrs pre-incubation + 4 hrs labeling
Counter-ions that a name gives are not always drawn.
# pIC50 = -log10(concentration in molar units)

Qu. Returns the measured pIC50 for the input molecule. Input: CC(C)n1c(CC[C@@H](O)C[C@@H](O)CC(=O)O)c(-c2ccc(F)cc2)c(-c2ccccc2)c1C(=O)Nc1ccc(F)cc1 [Example 6, Sodium Salt]
Ans. 9.64

Qu. Cool, now CC(C)n1c(CCC(O)CC(O)CC(=O)[O-])c(-c2ccc(F)cc2)c(-c2ccccc2)c1C(=O)Nc1ccc(C(=O)[O-])cn1.[Na+].[Na+] (stereo not drawn) [Example 25, di-sodium Salt]
Ans. 9.72

Qu. Also CC(C)n1c(CC[C@@H](O)C[C@@H](O)CC(=O)[O-])c(-c2ccc(F)cc2)c(-c2ccccc2)c1C(=O)Nc1ccccc1.[Na+] [Example 1, Sodium Salt] ?
Ans. 9.13

* * *

Structures can show the parent of a compound that is named as a salt.
Parameter: melting point. Scope: all listed entries.

Study these solved cases before continuing.
compound	melting point
Cc1cc(CNC(=O)c2c(-c3ccccc3)c(-c3ccc(F)cc3)c(/C=C/[C@@H](O)C[C@@H](O)CC(=O)[O-])n2C(C)C)no1.[Na+] [Example 79]	200 to 203 °C
CC(C)n1c(CC[C@@H](O)C[C@@H](O)CC(=O)[O-])c(-c2ccc(F)cc2)c(-c2ccccc2)c1C(=O)NCc1cccc(C(=O)[O-])c1.[Na+].[Na+] [Example 163]	240 to 245 °C
CC(C)n1c(CC[C@@H](O)C[C@@H](O)CC(=O)[O-])c(-c2ccc(F)cc2)c(-c2ccc(F)cc2)c1C(=O)Nc1ccc(OCc2ccccc2)cc1.[Na+] [Example 127]	215 to 217 °C
CC(C)n1c(CC[C@@H](O)C[C@@H](O)CC(=O)[O-])c(-c2ccc(F)cc2)c(-c2ccc(F)cc2)c1C(=O)Nc1cccc(O)c1.[Na+] [Example 135]	220 to 222 °C

Qu. May I ask what melting point has been recorded for CC(C)n1c(CC[C@@H](O)C[C@@H](O)CC(=O)[O-])c(-c2ccc(F)cc2)c(-c2ccccc2)c1C(=O)Nc1cccc(C(=O)N(C)C)c1.[Na+] [Example 108] ?
Ans. 156 to 205 °C

Qu. Also, CC(C)n1c(CC[C@@H](O)C[C@@H](O)CC(=O)O)c(-c2ccc(F)cc2)c(-c2ccc(F)cc2)c1C(=O)Nc1ccc(S(N)(=O)=O)cc1 (as salt: sodium) [Example 11] please.
Ans. 261 to 263 °C

Qu. Could you do the same for CC(C)n1c(CC[C@@H](O)C[C@@H](O)CC(=O)[O-])c(-c2ccc(F)cc2)c(-c2ccccc2)c1C(=O)N[C@@H](C)c1ccccc1.[Na+] [Example 115] , please?
Ans. 227 to 229 °C (dec.)

Qu. Also CC(C)n1c(/C=C/[C@@H](O)C[C@@H](O)CC(=O)[O-])c(-c2ccc(F)cc2)c(-c2ccccc2)c1C(N)=O.[Na+] [Example 160] , if possible.
Ans. 238 to 240 °C

Qu. For CC(C)n1c(CC[C@@H](O)C[C@@H](O)CC(=O)[O-])c(-c2ccc(F)cc2)c(-c2ccccc2)c1C(=O)NCCc1ccccc1.[Na+] [Example 91] then?
Ans. 197 to 200 °C

Qu. Now consider COC(=O)c1cccc(CNC(=O)c2c(-c3ccccc3)c(-c3ccc(F)cc3)c(/C=C/[C@@H](O)C[C@@H](O)CC(=O)[O-])n2C(C)C)c1.[Na+] [Example 151] and answer again.
Ans. 171 to 174 °C

Qu. Here is the next compound: CC(C)n1c(CCC(O)C[C@@H](O)CC(=O)O)c(-c2ccc(F)cc2)c(-c2ccccc2)c1C(=O)Nc1ccc(F)cc1 (stereo partly shown) (as salt: sodium) [Example 8]
Ans. 240 to 242 °C

Qu. // same read-out, input: CC(C)n1c(CC[C@@H](O)C[C@@H](O)CC(=O)[O-])c(-c2ccc(F)cc2)c(-c2ccc(F)cc2)c1C(=O)Nc1ccccc1O.[Na+] [Example 134]
Ans. 222 to 223 °C

Qu. Check CC(C)n1c(CC[C@@H](O)C[C@@H](O)CC(=O)[O-])c(-c2ccc(F)cc2)c(-c2ccccc2)c1C(N)=O.[Na+] [Example 161] too.
Ans. 212 to 214 °C

Qu. Ok, now CC(C)n1c(/C=C/[C@@H](O)C[C@@H](O)CC(=O)[O-])c(-c2ccc(F)cc2)c(-c2ccccc2)c1C(=O)NCc1ccc(C#N)cc1.[Na+] [Example 145]
Ans. 193 to 195 °C

Qu. For CC(C)n1c(CC[C@@H](O)C[C@@H](O)CC(=O)[O-])c(-c2ccc(F)cc2)c(-c2ccccc2)c1C(=O)Nc1ccccc1.[Na+] [Example 1] then?
Ans. 239 to 241 °C

Qu. CC(N)=CC(=O)CNC(=O)c1c(-c2ccccc2)c(-c2ccc(F)cc2)c(CC[C@@H](O)C[C@@H](O)CC(=O)[O-])n1C(C)C.[Na+] [Example 113] , same question.
Ans. 189 to 193 °C

Qu. Next up: CC(C)n1c(/C=C/[C@@H](O)C[C@@H](O)CC(=O)[O-])c(-c2ccc(F)cc2)c(-c2ccc(F)cc2)c1C(=O)Nc1cccc(OCc2ccccc2)c1.[Na+] [Example 132]
Ans. 225 to 227 °C

Qu. Follow-up entry: CC(C)n1c(CC[C@@H](O)C[C@@H](O)CC(=O)[O-])c(-c2ccc(F)cc2)c(-c2ccc(F)cc2)c1C(=O)Nc1ccc(C(=O)N(C)C)cc1.[Na+] [Example 85]
Ans. 220 to 223 °C

Qu. Another compound to check: CC(C)n1c(CC[C@@H](O)C[C@@H](O)CC(=O)[O-])c(-c2ccc(F)cc2)c(-c2ccc(F)cc2)c1C(=O)NCc1ccc(C(=O)[O-])cc1.[Na+].[Na+] [Example 162]
Ans. 298 to 300 °C

Qu. Try this compound next: CC(C)n1c(CC[C@@H](O)C[C@@H](O)CC(=O)[O-])c(-c2ccc(F)cc2)c(-c2ccc(F)cc2)c1C(=O)Nc1ccccn1.[Na+] [Example 120]
Ans. 217 to 219 °C (dec.)

Qu. Proceed to CCNC(=O)c1c(-c2ccccc2)c(-c2ccc(F)cc2)c(CC[C@@H](O)C[C@@H](O)CC(=O)[O-])n1C(C)C.[Na+] [Example 158]
Ans. 203 to 205 °C

Qu. Next compound up: CC(C)n1c(CC[C@@H](O)C[C@@H](O)CC(=O)O)c(-c2ccc(F)cc2)c(-c2ccc(F)cc2)c1C(=O)Nc1ccc(CC(N)=O)cc1 (as salt: sodium) [Example 13]
Ans. 248 to 250 °C
